These entries and their values trace back to patent US20150165756A1.

Assay: Maximal solubility in oily components (mixing, PTFE filtration, HPLC analysis)
Format: physicochemical
Settings: oil or lipid, thermodynamic from solid; 25° C., soybean oil; read-out: maximal solubility in soybean oil
testReadout: solubility

C[C@@H]1c2ccccc2CCN1C(=O)c1cc2ncc(Br)cn2n1: 7000 µg/mL

* * *

Assay: Maximal solubility in oily components (mixing, PTFE filtration, HPLC analysis)
Format: physicochemical
Details: oil or lipid, thermodynamic from solid; 25° C., MCT; read-out: maximal solubility in MCT
testReadout: solubility (mg/mL)

C[C@@H]1c2ccccc2CCN1C(=O)c1cc2ncc(Br)cn2n1 [Compound (A)]: 12

* * *

Test: Maximal solubility in oily components (mixing, PTFE filtration, HPLC analysis)
Assay type: physicochemical
Details: 50:50 (w/w) mixture of soybean oil and MCT, oil or lipid, thermodynamic from solid; read-out: maximum solubility in mixture of oily components
testReadout: solubility (µg/mL)

C[C@@H]1c2ccccc2CCN1C(=O)c1cc2ncc(Br)cn2n1 [Compound (A)]: 8000
